tested-target: Oxysterols receptor LXR-beta (Homo sapiens)
test-method-notes: Antagonist activity at human recombinant LXRbeta expressed in HEK293 cells assessed as inhibition of T0901317-induced transcriptional activation at 100 uM by luciferase assay
Format: functional, cell-based
observation-type: inhibition (%)

O=C1c2c(Cl)c(Cl)c(Cl)c(Cl)c2C(=O)N1CCc1ccccc1: 38
CC(C)c1cccc(C(C)C)c1N1C(=O)c2c(Cl)c(Cl)c(Cl)c(Cl)c2C1=O: 49
O=C1c2ccc(Cl)cc2C(=O)N1CCCCc1ccccc1: 45
O=C1c2c(Cl)c(Cl)c(Cl)c(Cl)c2C(=O)N1Cc1ccccc1: 51
O=C1c2c(Cl)c(Cl)c(Cl)c(Cl)c2C(=O)N1CCCCc1ccccc1: 49

1: O=C1c2c(Cl)c(Cl)c(Cl)c(Cl)c2C(=O)N1CCCc1ccccc1
2: O=C1c2cc(Cl)c(Cl)cc2C(=O)N1CCCCc1ccccc1
Lookup: I'd appreciate it if you could identify which of 1 and 2 has the greater inhibition. Lab log: write the label of the selected item as the result.
Found: 1
(1: 52%, 2: 35%)

I: O=C1c2c(Cl)c(Cl)c(Cl)c(Cl)c2C(=O)N1CCCCCc1ccccc1
II: CC(C)c1cccc(C(C)C)c1N1C(=O)c2ccccc2C1=S
Lookup: Could you determine which record has the numerically smaller inhibition? Candidates: I and II Lab log: write the label of the selected item as the result.
Found: I

meta.source: ChEMBL document CHEMBL1139976
